System: SK-OV-3 ovarian
Assay: NCI tumour cell line growth inhibition, 48 h
// reported GI50 for each item listed

Use the examples below as a reference point.
- compound: "CO/N=C(\\COc1ccc2c(c1)oc(=O)c1cc(OC)ccc12)c1cccc(OC)c1"
  targetOfAssay: "SK-OV-3 ovarian"
  GI50: "> 100 µM"
- compound: "O=C1/C(=C/c2ccc(Cl)cc2)CN(Cc2cn(CCNc3ccnc4cc(Cl)ccc34)nn2)C/C1=C\\c1ccc(Cl)cc1"
  targetOfAssay: "SK-OV-3 ovarian"
  GI50: "1.03 µM"
- compound: "CN1C(=O)c2cc([N+](=O)[O-])ccc2[C@H]2C(=O)c3cc4c(cc3[C@H]21)OCO4"
  targetOfAssay: "SK-OV-3 ovarian"
  GI50: "0.588 µM"
- compound: "CC1CC(C)/C(=N/NC(N)=O)C(C(O)CC2CCC(=O)NC2=O)C1 (stereo not given)"
  targetOfAssay: "SK-OV-3 ovarian"
  GI50: "4.08 µM"

Provide one value: measured GI50 of `CCSc1nc(N2CCCCC2)c2cn[nH]c2n1`
> 100 µM

Entry source: PubChem BioAssay (NCI)
